Please respond with reported IC50 for every item in the list.
# tested_target: CYP3A4 (Homo sapiens)
# Sequence (P08684 whole entry): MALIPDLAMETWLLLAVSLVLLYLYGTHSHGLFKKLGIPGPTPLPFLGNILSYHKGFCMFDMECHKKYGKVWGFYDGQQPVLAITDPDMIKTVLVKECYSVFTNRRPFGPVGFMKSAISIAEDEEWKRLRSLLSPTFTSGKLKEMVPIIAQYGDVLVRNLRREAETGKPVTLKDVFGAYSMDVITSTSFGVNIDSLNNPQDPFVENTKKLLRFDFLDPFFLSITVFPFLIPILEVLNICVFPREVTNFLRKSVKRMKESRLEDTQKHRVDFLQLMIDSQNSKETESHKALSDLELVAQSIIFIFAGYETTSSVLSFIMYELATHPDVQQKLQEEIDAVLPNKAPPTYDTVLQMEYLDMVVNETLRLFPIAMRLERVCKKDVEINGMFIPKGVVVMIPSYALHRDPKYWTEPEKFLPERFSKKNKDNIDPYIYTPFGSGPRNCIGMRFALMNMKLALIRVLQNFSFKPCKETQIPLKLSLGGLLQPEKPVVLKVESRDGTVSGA
# test_protocol: in vitro
# Set-up: cytochrome P450 isoform inhibition liability assay
I only need the number, in µM, no unit after it.

Quick one: IC50 of Nc1nnc(NCCc2cccs2)s1 ?
34.4

// IC50 lookup, key: Nc1nnc(NCc2ccc(-c3ccccc3)cc2)s1
12.1

====

For each record, write down the corresponding EC50.
# System: T. b. brucei Lister 427 bloodstream forms
# test_protocol: In vitro activity against T. brucei (HTS SYBR Green I growth inhibition assay)
# Assay type: cell-based, Trypanosoma brucei brucei
# conditions_used: Trypanosoma brucei, standard deviation within ±10% of the value; read-out: EC50 T. brucei
// return numeric value only (unit: µM, not printed)

Quick check: EC50 of NCc1ccc(-c2nnc(N)s2)cc1 [1b] ?
0.8

For the molecule COc1cccc(CNc2nnc(N)s2)c1 [4i] , what EC50 is on record?
16

Reported EC50, molecule Nc1nnc(-c2cc(O)c(O)c(O)c2)s1 [1f] : ____
1

Dear colleague, I am looking for the recorded EC50 of the following molecule: Nc1nnc(/C=C/c2ccccc2)s1 [3h]
58

If you can, please state the reported EC50 value of Nc1nnc(-c2cccc(-c3ccc(C(F)(F)F)cc3)c2)s1 [2e] .
42

# query: EC50 of entry Nc1nnc(-c2ccc(O)c(O)c2)s1 [1d, 3′,4′-dihydroxy-phenyl-1,3,4-thiadiazole]
18.3

Entry C[C@@H](c1cccc(C(=O)c2ccccc2)c1)c1nnc(N)s1 [3f] : reported EC50 = ?
20

Which value of EC50 has been reported for Nc1nnc(-c2cccc(-c3cccc(C(F)(F)F)c3)c2)s1 [2d] in the records?
37

====

Please provide measured inhibition at 10 µM for the entries that follow.
# tested_target: CYP2C19 (Homo sapiens, UniProt P33261)
# Sequence (P33261 whole entry): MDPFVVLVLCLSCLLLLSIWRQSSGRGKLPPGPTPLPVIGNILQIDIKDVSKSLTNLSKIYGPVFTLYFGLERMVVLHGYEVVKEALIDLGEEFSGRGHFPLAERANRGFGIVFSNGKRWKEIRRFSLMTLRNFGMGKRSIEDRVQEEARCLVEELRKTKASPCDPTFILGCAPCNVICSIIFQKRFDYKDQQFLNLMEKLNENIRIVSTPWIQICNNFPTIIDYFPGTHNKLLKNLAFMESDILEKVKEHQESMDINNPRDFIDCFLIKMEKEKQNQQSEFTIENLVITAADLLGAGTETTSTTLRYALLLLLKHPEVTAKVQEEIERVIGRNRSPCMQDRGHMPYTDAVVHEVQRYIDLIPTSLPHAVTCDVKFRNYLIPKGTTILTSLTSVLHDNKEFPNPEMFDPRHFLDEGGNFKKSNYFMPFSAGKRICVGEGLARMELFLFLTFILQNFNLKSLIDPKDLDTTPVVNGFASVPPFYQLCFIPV
# test_protocol: in vitro
# Set-up: cytochrome P450 isoform inhibition liability assay
Give just the number in %; leave the unit off.

What measured inhibition at 10 µM is associated with COc1ccccc1-c1nnc(N)s1 on CYP2C19 (Homo sapiens, UniProt P33261)?
-20.9

Hello, I am looking for reported inhibition at 10 µM with CYP2C19 (Homo sapiens, UniProt P33261) for Nc1nnc(-c2ccccc2Cc2ccccc2)s1 . Could you help?
90.5

Hello, I am looking for reported inhibition at 10 µM with CYP2C19 (Homo sapiens, UniProt P33261) for Nc1nnc(-c2ccc(-c3nnc(N)s3)c(N)c2)s1 . Could you help?
-28.3

Please state recorded inhibition at 10 µM (tested on CYP2C19 (Homo sapiens, UniProt P33261)) of Nc1nnc(-c2cccc(-c3ccccc3)c2)s1
65.1

Provide the documented inhibition at 10 µM with CYP2C19 (Homo sapiens, UniProt P33261) as the system for Nc1nnc(-c2cccc(-c3cccc(C(F)(F)F)c3)c2)s1
43.6

Can you look up inhibition at 10 µM on CYP2C19 (Homo sapiens, UniProt P33261) for Nc1nnc(Cc2ccc3ccccc3c2)s1 ?
-54.9

GET /values?readout=inhibition at 10 µM&system=CYP2C19 (Homo sapiens, UniProt P33261)&item= Nc1nnc(NCc2ccc(Cl)c(Cl)c2)s1
36.8

Under CYP2C19 (Homo sapiens, UniProt P33261): inhibition at 10 µM value of Nc1nnc(NCc2ccc(C(F)(F)F)cc2)s1 ?
11.9

What measured inhibition at 10 µM is associated with CN(C)CCc1nnc(N)s1 on CYP2C19 (Homo sapiens, UniProt P33261)?
-30.1

Form: Entry = Nc1nnc(CCC(=O)c2ccccc2)s1 | System = CYP2C19 (Homo sapiens, UniProt P33261) | inhibition at 10 µM = ____
-35.4

Record Nc1nnc(-c2ccc(O)c(O)c2)s1 [1d, 3′,4′-dihydroxy-phenyl-1,3,4-thiadiazole] : what is its inhibition at 10 µM with CYP2C19 (Homo sapiens, UniProt P33261)?
-32.3

Could you share what inhibition at 10 µM was measured for N#Cc1ccc(CNc2nnc(N)s2)cc1 , tested on CYP2C19 (Homo sapiens, UniProt P33261)?
-2

Query inhibition at 10 µM on CYP2C19 (Homo sapiens, UniProt P33261) for Nc1nnc(-c2ccc(OCc3ccc(Cl)c(Cl)c3)cc2)s1
69.6

What is its inhibition at 10 µM for CYP2C19 (Homo sapiens, UniProt P33261)? Entry: Nc1nnc(N)s1
62.3

Given the entry Nc1nnc(-c2cccc([N+](=O)[O-])c2)s1 , what inhibition at 10 µM was observed with CYP2C19 (Homo sapiens, UniProt P33261)?
-28.3

API: value(readout= inhibition at 10 µM, system= CYP2C19 (Homo sapiens, UniProt P33261), query= Nc1nnc(Cc2ccccc2)s1 )
-42.6

// map Nc1nnc(NCc2ccc(F)cc2)s1 to recorded inhibition at 10 µM (system: CYP2C19 (Homo sapiens, UniProt P33261))
-13.9

Lab request: please report inhibition at 10 µM under test system CYP2C19 (Homo sapiens, UniProt P33261) for Nc1nnc(Cc2cccc([N+](=O)[O-])c2)s1
-36.1

Look up inhibition at 10 µM with CYP2C19 (Homo sapiens, UniProt P33261) for this compound: COc1cccc(CNc2nnc(N)s2)c1
45.9

Find the measured inhibition at 10 µM: item COc1ccc(-c2nnc(N)s2)cc1OC , target or system CYP2C19 (Homo sapiens, UniProt P33261).
-26.1

Lab note: need inhibition at 10 µM with CYP2C19 (Homo sapiens, UniProt P33261) for entry NCc1ccc(-c2nnc(N)s2)cc1 , please look it up.
-17.9

Recorded inhibition at 10 µM for COc1cc(-c2nnc(N)s2)cc(OC)c1OC with CYP2C19 (Homo sapiens, UniProt P33261), please?
-18.5

Write down the reported inhibition at 10 µM of CN(C)C(=O)NCc1cccc(-c2nnc(N)s2)c1 , test system: CYP2C19 (Homo sapiens, UniProt P33261).
19.6

Provide value of inhibition at 10 µM for this record tested with CYP2C19 (Homo sapiens, UniProt P33261): Nc1nnc(N2CCC(Cc3ccccc3)CC2)s1
89.4

Requested read-out inhibition at 10 µM, target or system CYP2C19 (Homo sapiens, UniProt P33261), entry Nc1nnc(-c2ccc(-c3ccccc3)cc2)s1
95.8

Query for CYP2C19 (Homo sapiens, UniProt P33261): what inhibition at 10 µM does the record show for Nc1nnc(CCC(=O)c2cccs2)s1 ?
-3.4

Identify the measured inhibition at 10 µM of COc1ccc(-c2ccc(-c3nnc(N)s3)nc2)cc1 for CYP2C19 (Homo sapiens, UniProt P33261).
17

Entry Nc1nnc(CCc2ccccc2)s1 , system CYP2C19 (Homo sapiens, UniProt P33261): what inhibition at 10 µM was measured?
-36.5

Provide value of inhibition at 10 µM for this record tested with CYP2C19 (Homo sapiens, UniProt P33261): COc1cccc(OC)c1-c1nnc(N)s1
-30.6

Can you look up inhibition at 10 µM on CYP2C19 (Homo sapiens, UniProt P33261) for CN(C)C(=O)NCc1ccc(-c2nnc(N)s2)cc1 ?
9.4

Item: Nc1nnc(/C=C/c2ccccc2)s1 Test system: CYP2C19 (Homo sapiens, UniProt P33261) Read-out: inhibition at 10 µM Value: ?
7.2

Which inhibition at 10 µM is reported with CYP2C19 (Homo sapiens, UniProt P33261) for this entry: COC(=O)C(Cc1ccccc1)Nc1nnc(N)s1 (stereo not shown) ?
-27.4

Kindly state the measured inhibition at 10 µM obtained for Cc1ccc(CNc2nnc(N)s2)cc1 with CYP2C19 (Homo sapiens, UniProt P33261).
-6.7

Under CYP2C19 (Homo sapiens, UniProt P33261): inhibition at 10 µM value of Nc1cccc(-c2nnc(N)s2)c1 ?
-45.8

Lookup: inhibition at 10 µM / CYP2C19 (Homo sapiens, UniProt P33261) / N#Cc1ccc(Cc2ccccc2-c2nnc(N)s2)cc1
104

Hi! What's the reported inhibition at 10 µM for Nc1nnc(NCc2cccs2)s1 on CYP2C19 (Homo sapiens, UniProt P33261)?
-13.9

Short answer please: inhibition at 10 µM, CYP2C19 (Homo sapiens, UniProt P33261), entry Nc1nnc(NCc2ccccc2Cl)s1
-13.3

Query the reported inhibition at 10 µM for CYP2C19 (Homo sapiens, UniProt P33261); item: Nc1nnc(Cc2cccs2)s1
-17.4

Kindly state the measured inhibition at 10 µM obtained for Nc1nnc(-c2cccc(-c3ccc4c(c3)OCO4)c2)s1 with CYP2C19 (Homo sapiens, UniProt P33261).
34.3

// map Nc1nnc(-c2cc(O)c(O)c(O)c2)s1 to recorded inhibition at 10 µM (system: CYP2C19 (Homo sapiens, UniProt P33261))
67.4

====

# tested_target: CYP2C19 (Homo sapiens, UniProt P33261)
# test_protocol: in vitro
# Parameters: cytochrome P450 isoform inhibition liability assay
Hi, to clarify the labels: Criterion met covers inhibition at 10 µM from -10% upward, Criterion not met covers anything below -10%.

Form field: inhibition at 10 µM at least -10%? Entry: COCCCNc1nnc(N)s1
Criterion not met

Has Nc1nnc(-c2cccc(Br)c2)s1 a recorded inhibition at 10 µM greater than or equal to -10%?
Criterion not met

Entry Nc1nnc(NCc2ccccc2)s1 : is its inhibition at 10 µM no less than -10%?
Criterion not met

Decide: is the reported value of inhibition at 10 µM for Nc1nnc(-c2ccccc2)s1 equal to or greater than -10%?
Criterion met

For this compound, is measured inhibition at 10 µM -10% or higher? C[C@@H](c1cccc(C(=O)c2ccccc2)c1)c1nnc(N)s1
Criterion met

Determine whether this compound has inhibition at 10 µM no lower than -10%: Nc1nnc(-c2ccco2)s1
Criterion not met

Please indicate if the recorded inhibition at 10 µM for Nc1nnc(-c2ccc(Cl)c(Cl)c2)s1 meets or exceeds -10%.
Criterion met
